B1: CDC34 (parent)
chain: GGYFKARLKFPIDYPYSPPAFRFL

Variants of: B1
Test: protein stability index of a GFP-peptide fusion (GPS, HEK-293T) (PSI 1-6); higher = more stable;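 further: lentivirally expressed fusions sorted by FACS into six bins by GFP to DsRed ratio, PSI derived from sequencing read proportions per bin multiplied by bin number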
Conditions: c terminus: a fixed tail appended
// bucketize protein stability index: low: < 2; moderate: ≥ 2 and < 3; high: ≥ 3

Example entries and their recorded answers appear below.
R7A    low
K5H    moderate
F21Y    low
L24M    moderate
D13T    moderate

Lab note: which band did `Y3G` land in?
low

Cool, now `A20M`
high

Here is the next variant: `R22N`
moderate

And the next one, `P19N` ?
high

Now consider `D13A` .
high

Also check `P19H`
moderate

Repeat with `L24F`
moderate

Could you do the same for `A20G` , please?
moderate
